molecular target: mouse CD38 (Mus musculus); assay: mouse recombinant CD38 enzyme assay (hydrolysis of NAD+); conditions: read-out: mCD38 BioChem IC50
Sequence (P56528 whole entry): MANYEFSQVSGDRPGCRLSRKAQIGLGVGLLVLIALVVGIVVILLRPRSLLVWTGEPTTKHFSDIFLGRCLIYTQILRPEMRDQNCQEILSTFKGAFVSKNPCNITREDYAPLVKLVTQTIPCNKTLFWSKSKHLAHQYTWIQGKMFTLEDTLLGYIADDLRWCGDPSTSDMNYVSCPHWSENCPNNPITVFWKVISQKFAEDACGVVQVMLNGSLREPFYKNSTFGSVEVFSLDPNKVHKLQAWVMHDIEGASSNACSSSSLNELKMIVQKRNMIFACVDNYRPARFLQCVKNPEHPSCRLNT
parameter: IC50 (nM)

The following molecules have reported results that may help.
Cc1cc(-c2cncn2C)nc(C(=O)Nc2ccc(C(F)(F)F)nc2)n1 [Compound 235] ... 1.6
COC(=O)N1CCC(NC(=O)c2cccc(-n3ccnc3)n2)CC1 [Compound 45] ... 44
Cn1cncc1-c1ccnc(C(=O)NC2CCC(C)(C)OC2)n1 (stereo not drawn) [Compound 278] ... 67.9
CO[C@H]1CC[C@H](NC(=O)c2cc(C)nc(-n3ccnc3)n2)CC1 [Compound 118] ... 3
Cn1cncc1-c1cc(C(C)(C)C)nc(C(=O)Nc2ccc(C(F)(F)F)nc2)n1 [Compound 190] ... 427

a. Cc1cc(-c2cncn2C)nc(C(=O)Nc2ccc(C(F)F)nc2)n1 [Compound 202]
b. Cn1cncc1-c1ccnc(C(=O)N[C@H]2C[C@](O)(c3ccccc3)C2)n1 [Compound 310]
Prompt: For the two items a and b , which reports the higher IC50 value? Mark your selection by writing its label.
Completion: b
(b: 105 nM, a: 1.1 nM)

----------
target: UniProtKB P56528; experiment: mouse recombinant CD38 enzyme assay (hydrolysis of NAD+); settings: read-out: mCD38 BioChem IC50
pIC50: −log10 of the molar value.
parameter: pIC50

The following molecules have reported results that may help.
O=C(Nc1ccc(C(F)(F)F)nc1)c1ccnc(-n2ccnc2)n1 ... 8.05
COc1cc(-n2ccnc2)nc(C(=O)Nc2ccc(C(F)F)nc2)n1 ... 8.92
O=C(Nc1cccnc1)c1cc(C(F)(F)F)cc(-n2ccnc2)n1 ... 8.70
Cn1cncc1-c1ccnc(C(=O)Nc2ccc(C(C)(C)O)nc2)n1 ... 7.49
COc1cc(C(=O)Nc2ccc(C(F)F)nc2)nc(-c2cncs2)n1 ... 7.64

a. O=C(Nc1ccc(C(F)(F)F)nc1)c1cncc(-n2ccnc2)n1
b. O=C(NC1CC2(COC2)C1)c1nccc(-n2ccnc2)n1
Prompt: Lower pIC50: a or b ? Mark your selection by writing its label.
Completion: b
(b: 6.72, a: 8.00)

A. O=C(N[C@H]1CC[C@H](O)CC1)c1cccc(-n2ccnc2)n1
B. Cn1cncc1-c1ccnc(C(=O)N[C@H]2CC[C@H](C(C)(C)O)CC2)n1
Prompt: For the two items A and B , which reports the higher pIC50 value? Mark your selection by writing its label.
Completion: A
(A: 7.85, B: 7.51)

----------
Biological target: endogenous CD38 in HL60 cells (Homo sapiens)
Construct: endogenous in cells
Sequence (P28907 1-300): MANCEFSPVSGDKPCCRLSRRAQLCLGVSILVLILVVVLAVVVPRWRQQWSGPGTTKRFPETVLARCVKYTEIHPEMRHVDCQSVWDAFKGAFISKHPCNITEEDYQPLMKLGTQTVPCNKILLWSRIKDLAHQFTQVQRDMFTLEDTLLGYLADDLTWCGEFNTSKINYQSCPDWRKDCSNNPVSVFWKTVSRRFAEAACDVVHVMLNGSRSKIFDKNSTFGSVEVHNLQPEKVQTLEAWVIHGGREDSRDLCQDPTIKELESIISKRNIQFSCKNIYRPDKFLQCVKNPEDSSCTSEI
Assay: cellular CD38 assay in HL60 cells (cellular NAD levels)
Settings: all-trans retinoic acid, 24 hours, read-out: hCD38 HL60 ATRA NAD Cell Diaphorase IC50
parameter: IC50 (µM)

O=C(N[C@H]1CC[C@H](CO)CC1)c1nccc(-n2ccnc2)n1 ... 3.1
O=C(Nc1ccc(C(F)(F)F)nc1)c1cc(C2CCOCC2)nc(-n2ccnc2)n1 ... 3.19
Cn1cncc1-c1ccnc(C(=O)Nc2ccc(OC3CC(F)(F)C3)nc2)n1 ... 0.964
O=C(Nc1ccncc1)c1cc(-n2ccnc2)ccn1 ... 4.46

P. COC(=O)[C@H]1CC[C@H](NC(=O)c2ccnc(-c3cncn3C)n2)CC1
Q. O=C(Nc1ccc(C(F)(F)F)nc1)c1ccnc(-n2ccnc2)n1
Prompt: Lower IC50: P or Q ? Mark your selection by writing its label.
Completion: Q
